# experimental.target: human D2R/β-arrestin (Homo sapiens (Human))
# Sequence (P14416 whole entry): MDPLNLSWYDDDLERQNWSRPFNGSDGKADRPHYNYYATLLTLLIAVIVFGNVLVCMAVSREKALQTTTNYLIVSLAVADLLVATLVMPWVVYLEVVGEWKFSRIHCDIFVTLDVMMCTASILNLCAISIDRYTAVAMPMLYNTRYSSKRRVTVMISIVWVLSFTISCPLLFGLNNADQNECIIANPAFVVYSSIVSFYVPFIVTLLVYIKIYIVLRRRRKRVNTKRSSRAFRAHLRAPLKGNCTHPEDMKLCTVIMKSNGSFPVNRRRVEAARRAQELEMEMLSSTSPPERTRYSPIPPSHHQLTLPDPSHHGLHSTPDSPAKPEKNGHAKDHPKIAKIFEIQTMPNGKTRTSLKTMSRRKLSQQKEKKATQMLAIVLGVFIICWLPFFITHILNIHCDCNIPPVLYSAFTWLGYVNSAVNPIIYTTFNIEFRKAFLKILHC
# test.details: cell-based
# measurement.context: cAMP Antagonist, CHO-K1 cells expressing human D2R/β-arrestin; antagonist mode, 2.5 μM forskolin and 2.7 nM quinpirole
result.type: IC50

# input molecule: CC1(Oc2ccccc2)CCN(CCOc2ccccc2S(C)(=O)=O)CC1 ; wanted: its IC50
100 to 1000 nM

Cool, now CC1CC(C)(Oc2ccccc2)CC(C)N1CCOc1ccccc1C(F)(F)F (stereo not shown)
100 to 1000 nM

Cool, now CC1(Oc2cccc(C(F)(F)F)c2)CCN(CCOc2ccccc2F)C1 (stereo not shown)
> 30000 nM

Cool, now Cc1ccccc1OCCN1CCC(C)(Oc2ccccc2)CC1
> 30000 nM

Cool, now CC1(O)CCN(CCCOc2ccccc2C(F)(F)F)CC1
100 to 1000 nM

Cool, now CC1(Oc2ccc(Cl)cc2)CCN(CCOc2ccncc2)CC1
> 30000 nM

Cool, now CC1(Oc2ccc(Cl)cc2)CCN(CCOc2cccnc2)C1 (stereo not shown)
> 30000 nM

Cool, now CC1(Oc2ccccc2)CCN(CCOc2ccc(C(F)(F)F)cc2)CC1
> 30000 nM

Cool, now CC1(C(=O)Nc2ccccc2)CCN(CC2COc3ccccc3O2)CC1 (single isomer, unassigned) [Compound 204a]
1000 to 10000 nM

Cool, now CC1(Oc2ccccc2Cl)CCN(CCOc2ccccc2)C1 (stereo not shown)
> 30000 nM

Cool, now COc1ccccc1OCCN1CCC(C)(Oc2ccc(Cl)cc2)C1 (stereo not shown)
100 to 1000 nM

Cool, now CC1(C(=O)Nc2ccccc2)CCN(CC2COc3ccccc3O2)CC1 (stereo not shown) [Compound 204]
100 to 1000 nM

Cool, now COc1cc(F)c(F)cc1OCCN1CCC(C)(Oc2ccc(Cl)cc2)CC1
1000 to 10000 nM

Cool, now CC1(Oc2ccc(Cl)cc2)CCN(CCOc2ccc3c(c2)NC(=O)CC3)CC1
1000 to 10000 nM

Cool, now COC1(C)CCN(CCOc2ccccc2C(F)(F)F)CC1
100 to 1000 nM

Cool, now CC(O)c1ccc(OCCN2CCC(C)(Oc3ccc(Cl)cc3)CC2)cc1 (stereo not shown)
100 to 1000 nM

Cool, now CC1(Oc2ccccc2)CCN(CCn2cccc(C(F)(F)F)c2=O)CC1
> 30000 nM

Cool, now CC1(Oc2ccc(Cl)cc2)CCN(CCOc2ccc3ncoc3c2)CC1
> 30000 nM

Cool, now CC1(C(=O)NC2CC2)CCN(CC2COc3ccccc3O2)CC1 (single isomer, unassigned) [Compound 203a]
1000 to 10000 nM

Cool, now COc1ccccc1OCCN1CCC(C)(Oc2ccc(Cl)cc2)CC1
1000 to 10000 nM

Cool, now CC1(C(=O)Nc2ccccc2)CCN(CCOc2ccccc2F)CC1
100 to 1000 nM

Cool, now CC1(OCc2ccccc2)CCN(CCOc2ccccc2C(F)(F)F)CC1
< 100 nM

Cool, now CC1(Oc2cccc(C(F)(F)F)c2)CCN(CCOc2cc(F)ccc2F)C1 (stereo not shown)
10000 to 30000 nM

Cool, now CC1(O)CCN(CCOc2ccccc2)CC1
> 30000 nM

Cool, now CC1(Oc2ccccc2)CCN(CCOc2ccccc2)C1 (stereo not shown)
> 30000 nM

Cool, now Cc1ccc(OCCN2CCC(C)(Oc3ccc(Cl)cc3)CC2)cc1
> 30000 nM

Cool, now CC1(Oc2ccc(Cl)cc2)CCN(CCOc2ccc(C(F)(F)F)cn2)CC1
> 30000 nM

Cool, now Clc1ccc2c(c1)CC1(CCN(CCOc3ccccc3)C1)O2 (stereo not shown)
100 to 1000 nM

Cool, now CC1(Oc2ccc(Cl)cc2)CCN(CCOc2cc(Cl)ccc2C(F)(F)F)CC1
> 30000 nM

Cool, now CC1(Oc2ccc([N+](=O)[O-])cc2)CCN(CCOc2ccccc2)C1 (stereo not shown)
> 30000 nM

Cool, now Clc1ccc2c(c1)C[C@@H]1CN(CCOc3ccccc3)C[C@H]1O2
100 to 1000 nM

Cool, now Cc1cccc(OCCN2CCC(C)(Oc3ccc(Cl)cc3)C2)c1 (stereo not shown)
100 to 1000 nM

Cool, now FC(F)(F)c1ccccc1OCCN1CCC2(CC1)CC2c1ccc(Cl)cc1 (stereo not shown) [Compound 216]
> 30000 nM

Cool, now CC1(Oc2ccc(Cl)cc2)CCN(CCOc2ccccc2C(F)(F)F)CC1
> 30000 nM

Cool, now CC1(Oc2ccc(Cl)cc2)CCN(CCOc2ccccc2)C1 (stereo not shown)
> 30000 nM

Cool, now CC1(Oc2ccc(Cl)cc2)CCN(CCn2c(=O)ccc3cccc(C(F)(F)F)c32)CC1
> 30000 nM

Cool, now CN(C)C(=O)C1(C)CCN(C[C@H]2COc3ccccc3O2)CC1
> 30000 nM
